biological target: rat NaPi-2b (Rattus norvegicus, UniProt Q9JJ09); test: Sodium-dependent phosphate uptake of Xenopus oocytes which expressed NaPi-2b (32P); conditions: Xenopus oocytes expressing rat NaPi-2b, 32P radioactive phosphorus; read-out: IC50 (phosphate uptake inhibitory activity)
Sequence (Q9JJ09 whole entry): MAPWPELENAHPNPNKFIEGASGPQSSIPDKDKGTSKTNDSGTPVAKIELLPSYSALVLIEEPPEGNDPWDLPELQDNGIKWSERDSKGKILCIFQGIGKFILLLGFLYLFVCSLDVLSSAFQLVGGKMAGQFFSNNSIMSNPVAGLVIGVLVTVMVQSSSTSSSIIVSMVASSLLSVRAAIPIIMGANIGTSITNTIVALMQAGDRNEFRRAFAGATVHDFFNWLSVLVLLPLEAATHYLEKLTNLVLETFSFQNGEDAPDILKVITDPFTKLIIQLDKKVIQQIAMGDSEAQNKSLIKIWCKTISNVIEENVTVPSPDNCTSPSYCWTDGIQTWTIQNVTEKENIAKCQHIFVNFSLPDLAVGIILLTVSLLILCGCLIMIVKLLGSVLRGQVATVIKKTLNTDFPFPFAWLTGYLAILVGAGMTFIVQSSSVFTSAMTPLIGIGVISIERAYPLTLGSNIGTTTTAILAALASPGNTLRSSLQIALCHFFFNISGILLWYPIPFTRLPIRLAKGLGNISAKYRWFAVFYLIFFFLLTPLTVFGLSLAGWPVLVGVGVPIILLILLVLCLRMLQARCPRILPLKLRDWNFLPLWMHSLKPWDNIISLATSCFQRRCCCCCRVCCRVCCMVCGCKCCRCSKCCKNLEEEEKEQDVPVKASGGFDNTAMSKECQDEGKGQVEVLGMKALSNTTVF
pIC50: −log10 of the molar value.
VALUE_TYPE: pIC50

CCN(CC)CCN(C)Cc1cccc(C(=O)Nc2ccc(I)cc2C(=O)N/N=C/c2ccc(Cl)c(C(F)(F)F)c2)c1 | > 5.52
Cc1ccc(CNNC(=O)c2c(C)csc2NC(=O)c2cccc(CSCCCO)c2)cc1C | > 5.52

Now look at this one.
Query: # get_value(readout='pIC50', item= CCOCCN(CCOCC)Cc1ccc(C(=O)Nc2ccc(Br)cc2C(=O)N/N=C/c2ccc(C)c(C)c2)cc1 )
Response: > 5.00
